Target: human GLP-1R (Homo sapiens, UniProt P43220, G168S)
Sequence (P43220 24-463 G168S): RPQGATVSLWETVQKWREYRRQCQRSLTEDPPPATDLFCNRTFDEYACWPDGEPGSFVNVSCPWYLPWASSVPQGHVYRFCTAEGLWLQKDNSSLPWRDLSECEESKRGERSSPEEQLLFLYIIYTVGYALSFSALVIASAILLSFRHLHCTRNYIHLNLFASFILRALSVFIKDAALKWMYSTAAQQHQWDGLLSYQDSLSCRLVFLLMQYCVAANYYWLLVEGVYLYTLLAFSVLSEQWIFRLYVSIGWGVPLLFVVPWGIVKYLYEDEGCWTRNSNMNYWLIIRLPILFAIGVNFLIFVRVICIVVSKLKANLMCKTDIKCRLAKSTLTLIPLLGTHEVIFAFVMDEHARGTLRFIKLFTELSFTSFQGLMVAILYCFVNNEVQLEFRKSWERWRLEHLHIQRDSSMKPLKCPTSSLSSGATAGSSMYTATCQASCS
Assay: CHO GLP-1R Clone H6 cAMP HTRF agonist assay (Assay 1, high receptor density)
Assay type: cell-based
Conditions: CHO GLP-1R clone H6, cAMP HTRF; geometric mean
MEASURED METRIC: EC50 (nM)

The cases that follow already have their EC50 on record.
- Cc1cc(Cn2c(CN3CCC(c4cccc(OCc5ccc(Cl)cc5F)n4)CC3)nc3ccc(C(=O)O)cc32)no1 [Compound 310B]: 320
- CC(F)(F)Cn1c(CN2CCC(c3cccc(OCc4ccc(Cl)cc4F)n3)CC2)nc2ccc(C(=O)O)cc21 [Compound 302B]: 130
- O=C(O)c1ccc2nc(CN3CCC(c4cccc(OCc5ccc(Cl)cc5F)n4)CC3)n(CC3CCCCO3)c2c1 (stereo not shown) [Compound 323B]: 1600
- Cc1noc(CCn2c(CN3CCC(c4cccc(OCc5ccc(Cl)cc5F)n4)CC3)nc3ccc(C(=O)O)cc32)n1 [Compound 304B]: 190
- COCCn1c(CN2CCN(c3cccc(OCc4ccc(C#N)cc4)n3)C[C@@H]2C)nc2ccc(C(=O)O)cc21 [Compound 172B]: 2900
- COCCn1c(CN2CCN(c3nc(OCc4ccc(Cl)cc4F)ccc3F)CC2)nc2ccc(C(=O)O)cc21 [Compound 179B]: 1600
- O=C(O)c1ccc2nc(CN3CCC(c4cccc(OCc5ccc(Cl)cc5F)n4)CC3)n(CCN3CCOCC3)c2c1 [Compound 325B]: 2200
- Cn1c(CN2CCC(c3cccc(OCc4ccc(F)cc4F)n3)CC2)nc2ccc(C(=O)O)cc21 [Compound 223B]: 170

1. COCCn1c(CN2CCC(c3cccc(OCc4ccccc4)n3)CC2)nc2ccc(C(=O)O)cc21 [Compound 181B]
2. O=C(O)c1ccc2nc(CN3CCC(c4cccc(OCc5ccc(Cl)cc5F)n4)CC3)n(CC3CCOCC3)c2c1 [Compound 324B]
Larger number for EC50: 1 , or 2 ? Let me know the label of the one you choose. 2
(2: 1900 nM, 1: 170 nM)

A. COCCn1c(CN2CCC(c3cccc(OCc4ccc(Cl)cc4F)n3)CC2)nc2ccc(C(=O)O)cc21 [Compound 176B]
B. Cn1cc(CCn2c(CN3CCC(c4cccc(OCc5ccc(Cl)cc5F)n4)CC3)nc3ccc(C(=O)O)cc32)nn1 [Compound 319B]
Between A and B , which one has the lower reported EC50 value? In your reply, give the label of the chosen option. B
(B: 1100 nM, A: 2400 nM)

====

Biological target: human GLP-1R (Homo sapiens, UniProt P43220, G168S)
Assay: CHO GLP-1R Clone H6 cAMP HTRF agonist assay (Assay 1, high receptor density)
Format: cell-based
Conditions: CHO GLP-1R clone H6, cAMP HTRF; geometric mean
pEC50: −log10 of the molar value.
MEASURED METRIC: pEC50

1. COCCn1c(CN2CCN(c3ccc(F)c(OCc4ccc(Cl)cc4F)n3)CC2C)nc2ccc(C(=O)O)cc21 (stereo in doubt) [Compound 174B]
2. CO[C@@H]1CCC[C@H]1n1c(CN2CCC(c3cccc(OCc4ccc(Cl)cc4F)n3)CC2)nc2ccc(C(=O)O)cc21 (stereo in doubt) [Compound 194B]
3. Cn1cc(Cn2c(CN3CCC(c4cccc(OCc5ccc(Cl)cc5F)n4)CC3)nc3ccc(C(=O)O)cc32)cn1 [Compound 318B]
Sort the entries above by pEC50, smallest first. # respond with the labels, arranged in the requested order 1, 3, 2

====

Target: human GLP-1R (Homo sapiens, UniProt P43220, G168S)
Assay: CHO GLP-1R Clone H6 cAMP HTRF agonist assay (Assay 1, high receptor density)
Type: cell-based
Settings: CHO GLP-1R clone H6, cAMP HTRF; geometric mean
pEC50: −log10 of the molar value.
MEASURED METRIC: pEC50

# count of solved cases: 2
- Cn1c(CN2CCC(c3cccc(OCc4ccc(C#N)cc4)n3)CC2)nc2ccc(C(=O)O)cc21 [Compound 234B]: 6.54
- Cn1c(CN2CCC(c3cccc(OCc4c(F)cccc4F)n3)CC2)nc2ccc(C(=O)O)cc21 [Compound 224B]: 5.92

P. COCCn1c(CN2CCC(c3cccc(OCc4ccc(C#N)cc4)n3)CC2)nc2ccc(C(=O)O)c(F)c21 [Compound 169B]
Q. Cn1c(CN2CCC(c3cccc(OCc4ccc(C(F)(F)F)cc4F)n3)CC2)nc2ccc(C(=O)O)cc21 [Compound 222B]
R. Cn1ncnc1Cn1c(CN2CCC(c3cccc(OCc4ccc(Cl)cc4F)n3)CC2)nc2ccc(C(=O)O)cc21 [Compound 308B]
S. O=C(O)c1ccc2nc(CN3CCC(c4cccc(OCc5ccc(F)cc5F)n4)CC3)n(C[C@@H]3CCO3)c2n1 [Compound 118B]
Arrange by pEC50, high to low. Give your ranking as a list of the labels in the requested order. Q, R, S, P

====

Biological target: human GLP-1R (Homo sapiens, UniProt P43220, G168S)
Assay: CHO GLP-1R Clone H6 cAMP HTRF agonist assay (Assay 1, high receptor density)
Assay type: cell-based
Details: CHO GLP-1R clone H6; arithmetic mean, relative to saturating GLP-1 (1 μM); read-out: Assay 1 Emax (%)
MEASURED METRIC: Emax (%)

A selection of reference data follows.
• Cn1c(CN2CCC(c3cccc(OCc4ccc(C#N)cc4)n3)CC2)nc2ccc(C(=O)O)cc21 [Compound 234B] = 64
• O=C(O)c1ccc2nc(CN3CCC(c4cccc(OCc5ccc(Cl)cc5F)n4)CC3)n(CCN3CCCOC3=O)c2c1 [Compound 305B] = 86
• N#Cc1ccc(COc2cccc(C3CCN(Cc4nc5ccc(C(=O)O)nc5n4Cc4ncco4)CC3)n2)c(F)c1 [Compound 214B] = 71
• CO[C@@H]1CCC[C@H]1n1c(CN2CCC(c3cccc(OCc4ccc(Cl)cc4F)n3)CC2)nc2ccc(C(=O)O)cc21 (stereo in doubt) [Compound 194B] = 69
• Cn1cncc1Cn1c(CN2CCC(c3cccc(OCc4ccc(F)cc4F)n3)CC2)nc2ccc(C(=O)O)cc21 [Compound 186B] = 82
• Cn1ncnc1Cn1c(CN2CCC(c3cccc(OCc4ccc(Cl)cc4F)n3)CC2)nc2ccc(C(=O)O)cc21 [Compound 308B] = 74
• Cn1c(CN2CCC(c3cccc(OCc4c(F)cccc4F)n3)CC2)nc2ccc(C(=O)O)cc21 [Compound 224B] = 53
• Cn1cc(Cn2c(CN3CCC(c4cccc(OCc5ccc(Cl)cc5F)n4)CC3)nc3ccc(C(=O)O)cc32)nn1 [Compound 311B] = 71

P. Cc1ccccc1COc1cccc(C2CCN(Cc3nc4ccc(C(=O)O)cc4n3C)CC2)n1 [Compound 230B]
Q. COCCn1c(CN2CCC(c3ccc(F)c(OCc4ccc(Cl)cc4F)n3)CC2)nc2ccc(C(=O)O)cc21 [Compound 178B]
# compare Emax for P vs Q ; return the one with the smaller value // output: label of the selected item Q

====

Target: human GLP-1R (Homo sapiens, UniProt P43220, G168S)
Assay: CHO GLP-1R Clone H6 cAMP HTRF agonist assay (Assay 1, high receptor density)
Type: cell-based
Details: CHO GLP-1R clone H6, cAMP HTRF; geometric mean
MEASURED METRIC: EC50 (µM)

The following compounds have reported results that may help.
• COCCn1c(CN2CCN(c3cccc(OCc4ccc(C#N)cc4F)n3)C[C@@H]2C)nc2ccc(C(=O)O)cc21 [Compound 173B] = 2.7
• Cn1cncc1Cn1c(CN2CCC(c3cccc(OCc4ccc(F)cc4F)n3)CC2)nc2ccc(C(=O)O)cc21 [Compound 186B] = 1.7
• CCn1cncc1Cn1c(CN2CCN(c3cccc(OCc4ccc(C#N)cc4F)n3)CC2)nc2ccc(C(=O)O)cc21 [Compound 152B] = 0.37
• COCCn1c(CN2CCN(c3cccc(OCc4ccc(Cl)cc4F)n3)C(C)(C)C2)nc2ccc(C(=O)O)cc21 [Compound 182B] = 1.8
• C[C@H]1CN(c2cccc(OCc3ccc(Cl)cc3F)n2)CCN1Cc1nc2ccc(C(=O)O)cc2n1Cc1cnco1 [Compound 147B] = 0.21

I. COCCCn1c(CN2CCC(c3cccc(OCc4ccc(Cl)cc4F)n3)CC2)nc2ccc(C(=O)O)cc21 [Compound 313B]
II. CC(C)n1cnnc1Cn1c(CN2CCC(c3cccc(OCc4ccc(Cl)cc4F)n3)CC2)nc2ccc(C(=O)O)cc21 [Compound 236B]
Lower EC50: I or II ? Could you answer with the label of the item you picked? I
(I: 0.38 µM, II: 1.3 µM)

A. CN1CCC[C@@H]1Cn1c(CN2CCC(c3cccc(OCc4ccc(Cl)cc4F)n3)CC2)nc2ccc(C(=O)O)cc21 [Compound 309B]
B. Cn1cc(CCn2c(CN3CCC(c4cccc(OCc5ccc(Cl)cc5F)n4)CC3)nc3ccc(C(=O)O)cc32)cn1 [Compound 307B]
Pick one: A or B . Which has the bigger EC50 number? Reply briefly: the label of your chosen item. A
(A: 0.3 µM, B: 0.21 µM)
